test: gradient 5% acetonitrile 3 min, to 50% in 2 min, to 85% in 15 min, held 3 min, 100 µL/min; settings: column: Zorbax Extend-C18 2.1 x 50 mm; eluents: water / acetonitrile, 0.1% formic acid
// reported RP-LC retention time for each item listed
endpoint: RP-LC retention time (s)

> print(dat)
                                    compound  units  obs.value
 1  CCOC(=O)c1c(C)[nH]c(C(=O)N2CCCC(C(=O)NCCc3c[nH]c4ccccc34)C2)c1C (stereo unspecified)      s        808
 2  CCOc1ccc(NC(=O)Nc2nccn(-c3ccc(Br)cc3)c2=O)cc1      s       1040
 3  CCn1cc(-c2nc(C)c(C(=O)Nc3ccccc3C)s2)c2cccnc21      s        980
 4  Cc1cccc(NC(=O)N2c3ccccc3CC2c2nc(C3CC3)no2)c1C (stereo unspecified)      s       1100
 5  CS(=O)(=O)N1CCN(C(=O)c2nn(CC3CC3)c3c2CNCC3)CC1      s        558
 6  CCNC(=O)C1CCCN(C(=O)c2cc(C)cc(C)c2)C1 (stereo unspecified)      s        718
 7  CCCn1c(CCNC(=O)c2ccc(C)c(C)c2)nc2cccnc21      s        705
 8    CCCCN(CC)S(=O)(=O)c1cc(-c2nnc(C)o2)co1      s        869
 9  Cc1ccc(NC(=O)C2CC(=O)N(c3n[nH]c4cccc(F)c34)C2)cc1C (stereo unspecified)      s        831
10  O=C(COc1ccccc1)N1CCCC(COc2ccc(C(=O)N3CCCC3)cc2)C1 (stereo unspecified)      s        808
11  COc1cc(-c2nc3cc(C)ccn3c2Nc2ccc(C)cc2)ccc1O      s        686
12  CCc1cccc(NC(=O)Cc2nc(C)c(C(=O)NCC(C)C)s2)c1      s        886
13  Cc1ncc([N+](=O)[O-])n1CC(C)O (stereo unspecified)      s        609
14  CCCN(C(=O)CC(=O)OC)c1nc(-c2ccc(Br)cc2)cs1      s       1240
15       COc1cccc(NC(=O)Cn2c(N)nc(C)cc2=O)c1      s        581
16   O=C(CCSc1nnc2ccc3ccccc3n12)Nc1ccc(F)cc1      s        878
17  CCOC(=O)c1sc(NC(=O)c2cc(C)n(C)n2)nc1-c1ccccc1      s        928
18  CC(C)OCCCNC(=O)C1CCCCC(=O)N1 (stereo unspecified)      s        617
19  O=C1CC(c2cccc(F)c2)c2c(c(C(=O)O)cn2-c2ccc(F)cc2)N1 (stereo unspecified)      s        774
20   Cc1nc(Cn2cccc2C(=O)Nc2ccc(C(C)C)cc2)no1      s        982
21  CC(=O)N1CCc2cc(S(=O)(=O)C(C)CC(=O)N3CCN(c4ccc(C)cc4C)CC3)ccc21 (stereo unspecified)      s        968

----------
assay: gradient 5% acetonitrile 3 min, to 50% in 2 min, to 85% in 15 min, held 3 min, 100 µL/min; settings: column: Zorbax Extend-C18 2.1 x 50 mm; eluents: water / acetonitrile, 0.1% formic acid
Response field label: string, one of Criterion met (RP-LC retention time strictly below 800 s) or Criterion not met.

> print(dat)
                                   compound        label.value
1  O=S(=O)(c1ccc(-c2csc(Nc3cccc4ccccc34)n2)cc1)N1CCCCC1  Criterion not met
2  O=C(Nc1cccc(-c2ccc(N3CCOCC3)nn2)c1)Nc1ccc(F)c(Cl)c1      Criterion met
3  CCCCN(C(=O)c1nc(C)n(C2CCN(S(C)(=O)=O)CC2)c1C)c1ccccc1      Criterion met
4  Cn1cnc(S(=O)(=O)N2CCC(C(=O)Nc3ccc(F)c(Cl)c3)CC2)c1      Criterion met
5  Cc1ccc(N2N=NC3C(=O)N(c4ccccc4)C(=O)C32)cc1C (centres undefined)  Criterion not met
6           CNC(=O)c1cc(C)nc2ccc(C(C)C)cc12      Criterion met
7         Cc1cc(NC(C)C)n2c(nc3ccccc32)c1C#N      Criterion met
8  COc1cc(CNC(=O)C2CCCN(c3nccnc3Sc3ccccc3)C2)cc(OC)c1 (centres undefined)  Criterion not met

----------
assay: gradient 5% acetonitrile 3 min, to 50% in 2 min, to 85% in 15 min, held 3 min, 100 µL/min; details: column: Zorbax Extend-C18 2.1 x 50 mm; eluents: water / acetonitrile, 0.1% formic acid
Label rule, in plain words: RP-LC retention time of 800 s and up is Y, under 800 s is N.

> print(dat)
                                   compound  label.value
1  Cc1cccc(CN2C(=O)CN(S(C)(=O)=O)CC2(C)C(=O)NCc2ccccc2)c1 (stereo not given)            Y
2  Cc1nn(C(C)C(=O)NCCCN2CCOCC2)c(=O)c2nn(-c3ccccc3)c(C)c12 (stereo not given)            N
3  CCc1nc2cc(-c3noc(Cc4ccc(OC)c(Cl)c4)n3)ccc2o1            Y
4  O=C(CCS(=O)(=O)c1ccccc1)N(Cc1ccccn1)Cc1ccco1            N

----------
test: gradient 5% acetonitrile 3 min, to 50% in 2 min, to 85% in 15 min, held 3 min, 100 µL/min; settings: column: Zorbax Extend-C18 2.1 x 50 mm; eluents: water / acetonitrile, 0.1% formic acid
endpoint: RP-LC retention time (s)

> print(dat)
                                   compound              endpoint  obs.value
1  CCCOc1nc2ccccc2nc1N1CCCC(C(=O)Nc2ccccc2OCC)C1 (centres undefined)  RP-LC retention time       1280
2  CCc1cccc(NC(=O)C2CCN(S(=O)(=O)c3ccc4c(c3)NC(=O)C(C)O4)CC2)c1 (centres undefined)  RP-LC retention time        838
3   Cc1cc(C(=O)N2CC(c3nc4ccccc4[nH]3)C2)no1  RP-LC retention time        555
4  CC1CCCN(c2ccc(NC(=O)C(C)C)c(C(=O)O)c2)C1 (centres undefined)  RP-LC retention time        627
5  O=C1CCCN1c1ccc(Cn2nc3c(-c4nc(-c5ccccc5)no4)cccn3c2=O)cc1  RP-LC retention time        839
6  COc1ccc(N2C=C(C(=O)N3CCCC3)S(=O)(=O)c3ccc(F)cc32)cc1  RP-LC retention time        736
7  CCOc1ccc(S(=O)(=O)N2CCC[C@@H]2C(=O)NCc2csc(C)n2)cc1  RP-LC retention time        743
8  Cc1ccc(-n2c(N3CCCC(C(=O)NCCC(C)C)C3)nc3ccsc3c2=O)cc1 (centres undefined)  RP-LC retention time        955
9  Cc1cc(S(=O)(=O)[C@H]2CS(=O)(=O)C[C@@H]2N2CCN(c3ccccc3)CC2)ccc1F  RP-LC retention time        994

----------
experiment: gradient 5% acetonitrile 3 min, to 50% in 2 min, to 85% in 15 min, held 3 min, 100 µL/min; settings: column: Zorbax Extend-C18 2.1 x 50 mm; eluents: water / acetonitrile, 0.1% formic acid
// reported RP-LC retention time for each item listed
endpoint: RP-LC retention time (s)

> print(dat)
                                    compound  obs.value
 1  COc1cc2ncc(S(=O)(=O)c3ccc(C)c(C)c3)c(N3CCN(C)CC3)c2cc1OC        629
 2            Cn1cc(C(=O)NC2CCCCC2)c2cccnc21        726
 3  COc1cccc(Nc2c(-c3ccc(N(C)C)cc3)nc3cnccn23)c1        771
 4  Cc1ccc(CNC(=O)C2(C)CCCN(C(=O)NCc3ccc(F)cc3)C2)cc1 (stereo not given)        864
 5  CCC(C)NC(=O)Cn1cnc2nc(N3CCCC(C(=O)NC4CC4)C3)sc2c1=O (stereo not given)        610
 6  CCc1ccc(CNC(=O)C2CCN(C(=O)c3ncn4c3COC(c3ccc(C)cc3)C4)CC2)cc1 (stereo not given)        853
 7  Cc1cc(C)c(S(=O)(=O)N2CCC(C(=O)NCc3csc(-c4ccccc4)n3)CC2)cc1C       1050
 8            O=C(CSc1ncn[nH]1)Nc1ccc(Cl)cc1        642
 9  CCC1CN(C(=O)N2CCC(C(=O)NCCN3CCN(C)CC3)CC2)c2ccccc2O1 (stereo not given)        606
10  CCc1cc(=O)n(CC(=O)Nc2cccc(C#N)c2)c(-c2ccccc2)n1       1080
11  Cn1ccc2cc(S(=O)(=O)N3CCCC(C(=O)NC4CCCCCC4)C3)ccc21 (stereo not given)       1010
12  CCc1ccccc1NC(=O)Cn1nc(N2CCCC(C)C2)c2ccccc2c1=O (stereo not given)       1180
13       O=C(NCc1c(F)cccc1F)C(=O)Nc1ccccc1Cl        971
14  C=CCN1C(=O)COc2ccc(-c3csc(NC(=O)C(C)(C)C)n3)cc21        964
15  CCC(=O)N1CCc2cc(N3CC(C(=O)N4CCN(C)CC4)CC3=O)ccc21 (stereo not given)        563
16             C#CCn1c(=O)c2c(ncn2C)n(C)c1=O        629
17  O=C(Cn1c(=O)c2cc(C3CC3)nn2c2ncccc21)Nc1ccc(F)c(F)c1        792
18  O=C(Nc1nnc(C2CC(=O)N(c3ccc(Cl)cc3)C2)o1)c1ccccc1F (stereo not given)        748
19  Cc1cccc(-c2nc3ccccn3c2NC(=O)NCc2ccco2)c1        640
20  Cc1nc2c(NS(=O)(=O)c3ccc(F)c(C)c3)cccn2n1        784
